FYI, the data here is from patent US8889677B2.

- Assay System: human recombinant mGluR5 (Homo sapiens, UniProt P41594)
- Construct: tetracycline removed 3-7 days before the assay
- Sequence (P41594 21-1212): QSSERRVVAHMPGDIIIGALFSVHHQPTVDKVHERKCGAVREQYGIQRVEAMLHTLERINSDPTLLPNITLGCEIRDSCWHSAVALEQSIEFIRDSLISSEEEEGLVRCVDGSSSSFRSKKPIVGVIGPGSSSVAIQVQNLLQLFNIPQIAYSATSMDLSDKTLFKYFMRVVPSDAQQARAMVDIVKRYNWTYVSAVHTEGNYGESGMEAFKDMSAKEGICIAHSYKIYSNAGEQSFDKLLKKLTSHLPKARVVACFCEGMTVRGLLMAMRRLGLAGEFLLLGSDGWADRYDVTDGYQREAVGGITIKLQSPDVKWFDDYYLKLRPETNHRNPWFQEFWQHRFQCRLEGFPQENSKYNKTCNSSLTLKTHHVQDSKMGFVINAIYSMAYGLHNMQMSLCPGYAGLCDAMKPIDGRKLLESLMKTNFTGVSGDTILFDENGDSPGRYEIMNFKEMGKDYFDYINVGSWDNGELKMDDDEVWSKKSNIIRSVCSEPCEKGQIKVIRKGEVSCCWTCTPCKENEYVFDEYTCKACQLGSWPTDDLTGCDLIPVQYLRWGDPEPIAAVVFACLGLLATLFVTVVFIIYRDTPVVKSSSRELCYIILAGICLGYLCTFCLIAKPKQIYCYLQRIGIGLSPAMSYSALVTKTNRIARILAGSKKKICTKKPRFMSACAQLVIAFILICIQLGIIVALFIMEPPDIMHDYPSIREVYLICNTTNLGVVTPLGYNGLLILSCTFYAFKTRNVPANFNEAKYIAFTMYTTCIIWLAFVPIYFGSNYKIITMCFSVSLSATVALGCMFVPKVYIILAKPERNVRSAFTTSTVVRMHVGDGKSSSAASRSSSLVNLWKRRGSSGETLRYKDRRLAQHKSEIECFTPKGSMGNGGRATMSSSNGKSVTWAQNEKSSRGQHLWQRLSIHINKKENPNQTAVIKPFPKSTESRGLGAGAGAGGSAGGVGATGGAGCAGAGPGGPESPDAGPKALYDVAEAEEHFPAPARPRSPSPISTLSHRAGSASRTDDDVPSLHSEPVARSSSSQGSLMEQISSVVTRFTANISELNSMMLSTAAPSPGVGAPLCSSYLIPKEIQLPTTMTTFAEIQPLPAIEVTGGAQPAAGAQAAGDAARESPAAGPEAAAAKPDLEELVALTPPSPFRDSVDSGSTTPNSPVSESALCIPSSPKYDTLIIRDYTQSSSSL
- Test Protocol: positive modulation of mGluR5, calcium based FLIPR assay in HEK 293 cells
- Conditions: HEK 293 cell line expressing human recombinant mGluR5; EC50 of the modulation of the glutamate response (glutamate approx. 5% basal stimulation); peak height of Ca release fluorescence signal
Endpoint Name: EC50 (nM)
Give bare numbers, in nM.

Some entries whose results are on file:
| Molecule | Value |
| --- | --- |
| CCCc1nc(-c2ccc(F)c(C)c2)nn1CC(=O)N1CCN(c2cc(C)ccn2)CC1 | 306 |
| COc1ccnc(N2CCN(C(=O)Cn3nc(-c4ccc(F)cn4)nc3-c3ccc(F)cc3)CC2)c1 | 434 |
| COc1ccc(-c2nc(-c3ccccc3)n(CC(=O)N3CCN(c4ncccn4)CC3)n2)cc1C | 43 |

Batch: EC50 for all items listed.
1. Cc1ccnc(N2CCN(C(=O)Cn3nc(-c4ccc(F)c(C)c4)nc3CCC(C)C)CC2)c1
2. COc1cc(N2CCN(C(=O)Cn3nc(-c4ccc(F)cc4)nc3-c3ccc(F)cc3)CC2)ncn1
3. O=C(Cn1nc(-c2ccc(F)cc2)nc1C#Cc1ccccc1)N1CCN(c2ccccn2)CC1

1. 209
2. 62
3. 98

Batch: EC50 for all items listed.
1. COCCCCOc1cc(N2CCN(C(=O)Cn3nc(-c4ccc(F)cc4)nc3-c3ccc(F)cc3)CC2)ncn1
2. COc1cccc(-c2nc(C3CCCCC3)n(CC(=O)N3CCN(c4ccccn4)CC3)n2)c1
3. N#CCc1ccc(-c2nc(-c3ccccc3)nn2CC(=O)N2CCN(c3ncccn3)CC2)cc1
4. COc1cc(N2CCN(C(=O)Cn3nc(-c4cc(F)c(F)c(F)c4)nc3-c3ccccc3)CC2)ncn1
5. CCCCc1nc(-c2ccc(F)c(C)c2)nn1CC(=O)N1CCN(c2cc(OC)ncn2)CC1

68
1150
1500
389
298

Batch: EC50 for all items listed.
1. O=C1CC(COc2cc(N3CCN(C(=O)Cn4nc(-c5ccc(F)cc5)nc4-c4ccc(F)cc4)CC3)ncn2)CN1 (centres unmarked)
2. Cc1cccnc1N1CCN(C(=O)Cn2nc(-c3ccc(F)cc3)nc2-c2ccc(F)cc2)CC1
3. COc1ccc(-c2nc(-c3ccc(OC)cc3)n(CC(=O)N3CCN(c4ccc(C)cn4)CC3)n2)cc1
4. Cc1ccnc(N2CCN(C(=O)Cn3nc(-c4ccc(F)c(C)c4)nc3C)CC2)c1
5. CCCc1nc(-c2ccc(OC(F)F)cc2)nn1CC(=O)N1CCN(c2ccccn2)CC1
6. O=C(Cn1nc(-c2ccc(F)cc2)nc1-c1ccc(F)cc1)N1CCN(c2ccc(Cl)cn2)CC1

[101, 1060, 375, 738, 527, 176]

---

Consider the following compounds; for each one, report its pEC50.
- Assay System: human recombinant mGluR5 (Homo sapiens)
- Construct: tetracycline removed 3-7 days before the assay
- Test Protocol: positive modulation of mGluR5, calcium based FLIPR assay in HEK 293 cells
- Conditions: HEK 293 cell line expressing human recombinant mGluR5; EC50 of the modulation of the glutamate response (glutamate approx. 5% basal stimulation); peak height of Ca release fluorescence signal
One number for each entry, as −log10 of the molar value.

Some entries whose results are on file:
| Compound | pEC50 |
| --- | --- |
| O=C(Cn1nc(-c2ccccc2)nc1C1=CCCCC1)N1CCN(c2ncccn2)CC1 | 6.27 |
| N#Cc1ccc(-c2nc(-c3ccccc3)nn2CC(=O)N2CCN(c3ncccn3)CC2)cc1 | 6.19 |
| Cc1cc(-c2nc(-c3ccccc3)n(CC(=O)N3CCN(c4ccccn4)CC3)n2)ccc1F | 7.17 |
| O=C(Cn1nc(-c2ccc(F)cc2)nc1-c1ccc(F)cc1)N1CCN(c2nccc3ccccc23)CC1 | 6.05 |
| O=C(Cn1nc(-c2ccc(F)cc2)nc1-c1ccc(F)cc1)N1CCN(c2cc(OC[C@@H]3CCCO3)ncn2)CC1 | 7.21 |
| N#Cc1cccnc1N1CCN(C(=O)Cn2nc(-c3ccc(F)cc3)nc2-c2ccc(F)cc2)CC1 | 6.72 |

Batch: pEC50 for all items listed.
1. COc1ccnc(N2CCN(C(=O)Cn3nc(-c4ccc(F)c(C)c4)nc3C3CCC(C)CC3)CC2)c1 (stereo not drawn)
2. CCCc1nc(-c2ccc(F)c(C)c2)nn1CC(=O)N1CCN(c2cc(OC)ccn2)CC1
3. Cc1cc(C)cc(-c2nc(-c3ccccc3)n(CC(=O)N3CCN(c4ncccn4)CC3)n2)c1
4. CCC(C)c1nc(-c2ccc(F)c(C)c2)nn1CC(=O)N1CCN(c2cccnn2)CC1 (stereo not drawn)
5. COC[C@H](C)Oc1cc(N2CCN(C(=O)Cn3nc(-c4ccc(F)cc4)nc3-c3ccc(F)cc3)CC2)ncn1

1: 6.00; 2: 6.45; 3: 7.51; 4: 5.73; 5: 7.12
